target: UniProt P06276
Sequence (P06276 29-602): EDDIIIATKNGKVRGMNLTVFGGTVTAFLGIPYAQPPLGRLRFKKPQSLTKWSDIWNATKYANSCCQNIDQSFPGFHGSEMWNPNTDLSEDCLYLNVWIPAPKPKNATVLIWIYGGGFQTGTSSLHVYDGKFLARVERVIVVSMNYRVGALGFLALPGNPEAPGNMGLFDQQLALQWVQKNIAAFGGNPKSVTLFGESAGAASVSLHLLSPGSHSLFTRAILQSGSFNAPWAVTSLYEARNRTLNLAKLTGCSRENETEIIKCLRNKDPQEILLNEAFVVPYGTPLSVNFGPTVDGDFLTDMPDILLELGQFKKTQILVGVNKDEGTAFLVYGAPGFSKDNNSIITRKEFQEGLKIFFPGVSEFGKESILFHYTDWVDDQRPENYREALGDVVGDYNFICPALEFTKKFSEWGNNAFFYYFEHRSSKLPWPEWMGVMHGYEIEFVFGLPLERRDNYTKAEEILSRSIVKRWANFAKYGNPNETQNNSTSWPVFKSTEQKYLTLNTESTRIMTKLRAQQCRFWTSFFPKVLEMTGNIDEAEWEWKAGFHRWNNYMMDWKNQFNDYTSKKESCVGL
Binarize IC50 at 5 µM; below is Fulfilled, at or above is Not fulfilled.

C#CCN1CCC23C=C[C@H](O)CC2Oc2c(OC)cc(Br)c(c23)C1 (mixture of isomers)    Not fulfilled
CCOC(=O)CN1CCC23C=C[C@H](O)CC2Oc2c(OC)ccc(c23)C1 (mixture of isomers)    Not fulfilled
CN1CC[C@@]23C=C[C@H](O)C[C@@H]2Oc2c(Oc4ccccc4)ccc(c23)C1    Fulfilled
COc1ccc2c3c1O[C@@H]1C[C@H](O)C=C[C@]31CC[N+](C)(CCN1CCOCC1)C2 (some centres unmarked)    Not fulfilled
C#CC[N+]1(C)CC[C@@]23C=C[C@H](O)C[C@@H]2Oc2c(OC)ccc(c23)C1 (some centres unmarked)    Fulfilled

Asked: Threshold test, IC50 < 5 µM: CNC(=S)N1CCC23C=C[C@H](O)CC2Oc2c(OC)cc(Br)c(c23)C1 (mixture of isomers)
Given back: Not fulfilled

Asked: Let us now turn to COc1cc(C)c2c3c1O[C@H]1C[C@H](O)C=C[C@@]31CCN(CCCN1CCCCC1)C2
Given back: Not fulfilled

---

target: Acetylcholinesterase (Homo sapiens, UniProt P22303); assay: biochemical
Sequence (P22303 32-614): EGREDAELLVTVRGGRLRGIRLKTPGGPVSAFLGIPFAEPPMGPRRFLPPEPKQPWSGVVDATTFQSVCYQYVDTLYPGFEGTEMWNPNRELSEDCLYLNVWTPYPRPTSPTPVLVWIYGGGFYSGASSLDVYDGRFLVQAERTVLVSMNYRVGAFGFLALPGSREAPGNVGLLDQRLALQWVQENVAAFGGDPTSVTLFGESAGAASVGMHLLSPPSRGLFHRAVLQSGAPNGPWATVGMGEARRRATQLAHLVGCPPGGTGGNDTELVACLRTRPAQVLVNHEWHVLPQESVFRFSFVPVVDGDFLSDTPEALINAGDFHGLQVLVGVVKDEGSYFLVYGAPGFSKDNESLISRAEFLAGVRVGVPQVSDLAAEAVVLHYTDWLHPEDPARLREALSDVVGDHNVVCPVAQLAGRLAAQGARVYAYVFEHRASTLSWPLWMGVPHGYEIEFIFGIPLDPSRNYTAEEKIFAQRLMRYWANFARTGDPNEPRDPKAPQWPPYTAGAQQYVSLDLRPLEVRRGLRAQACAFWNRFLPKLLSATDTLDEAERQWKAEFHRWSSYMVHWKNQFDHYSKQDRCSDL
quantityKind: pIC50
Please note pIC50 is a logarithmic value: minus log10 of concentration in mol/L. Answer with that number alone.

C#CCN1CCC23C=C[C@H](O)CC2Oc2c(OC)cc(Br)c(c23)C1 (mixture of isomers)    4.20
COc1ccc2c3c1O[C@H]1C[C@@H](O)C=C[C@@]31CCN(C(N)=O)C2    4.36
COc1cc(C)c2c3c1OC1C[C@@H](O)C=CC31CC[N+](C)(Cc1ccccc1)C2 (mixture of isomers)    4.33
COc1ccc2c3c1O[C@H]1C[C@@H](O)C=C[C@@]31CCN(C(=S)Oc1ccccc1)C2    5.14

Asked: // fetch Acetylcholinesterase (Homo sapiens, UniProt P22303) pIC50 for COc1ccc2c3c1O[C@H]1C[C@@H](O)C=C[C@@]31CCN(/C(=N/C#N)SC)C2
Given back: 5.17

Asked: Now the same for COc1ccc2c3c1OC1C[C@@H](O)C=CC31CCN(CCC(=O)NC(C)C)C2 (mixture of isomers)
Given back: 4.26

Asked: Then COc1cc(Br)c2c3c1O[C@@H]1C[C@H](O)C=C[C@]31CCN(C(=O)CN1CCN(C)CC1)C2 ?
Given back: 4.05

Asked: Item: COc1ccc2c3c1O[C@@H]1C[C@H](OC(=S)Nc4ccccc4)C=C[C@]31CCN(C)C2
Given back: 4.46

Asked: Another compound: COc1ccc2c3c1OC1C[C@@H](O)C=CC31CCN(CCCN)C2 (mixture of isomers)
Given back: 5.47

Asked: // repeat for CCCN1CC[C@@]23C=C[C@H](O)C[C@@H]2Oc2c(OC)ccc(c23)C1 and report
Given back: 6.52

Asked: COc1ccc2c3c1O[C@H]1C[C@@H](O)C=C[C@@]31CCN(c1cccs1)C2 ?
Given back: 5.40

Asked: Could you do the same for C=CCCC(=O)N1CC[C@@]23C=C[C@H](O)C[C@@H]2Oc2c(OC)ccc(c23)C1 , please?
Given back: 5.08

---

We begin with a simple list: items and their reported IC50.
molecular target: Acetylcholinesterase (Homo sapiens); assay: biochemical
Please give a number only; it is taken to be in nM.

COc1cc2c(cc1OC)C(=O)C(CCCCCN1CC[C@@]34C=C[C@H](O)C[C@@H]3Oc3c(OC)ccc(c34)C1)C2 (stereo partly shown) [Nr 158]    5.2
COc1ccc2c3c1O[C@H]1C[C@@H](O)C=C[C@@]31CC[N+](C)(CC=C(C)C)C2 (stereo partly shown)    200
COc1ccc2c3c1O[C@H]1C[C@@H](O)C=C[C@@]31CCN(C)[C@@H]2C#N    1200
COc1cc2c(cc1OC)C(=O)C(CCCCN1CC[C@@]34C=C[C@H](O)C[C@@H]3Oc3c(OC)ccc(c34)C1)C2 (stereo partly shown)    20
COc1ccc2c3c1O[C@H]1C[C@@H](O)C=C[C@@]31CCN(CCCN1CCCCC1)C2 [Nr 162]    360
COc1ccc2c3c1O[C@H]1C[C@@H](O)C=C[C@@]31CCN(CCCN1CC3CC1CN3c1ccc(F)cc1)C2 (stereo partly shown)    3000

Asked: // IC50 lookup, key: COc1ccc2c3c1OC1C[C@@H](O)C=CC31CCN(c1ccnc(OCCCN(C)C)n1)C2 (mixture of isomers)
Given back: 7400
